Target: KRas Q61H (Homo sapiens, UniProt P01116, Q61H)
Construct: Biotinylated KRas (corresponding to amino acids 1-169, produced at Accelegan Inc.); biotin (biotinylated); purchased Accelegan Inc
Sequence (P01116 1-169 isoform P01116-2 Q61H): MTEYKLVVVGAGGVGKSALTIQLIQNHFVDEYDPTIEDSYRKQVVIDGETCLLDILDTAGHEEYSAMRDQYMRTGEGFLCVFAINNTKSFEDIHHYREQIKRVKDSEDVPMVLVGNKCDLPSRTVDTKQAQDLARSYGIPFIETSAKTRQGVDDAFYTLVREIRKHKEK
Assay: KRas binding assay (TR-FRET displacement);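 note: TR-FRET signal read after one hour at room temperature, IC50 derived by four-parameter fitting of percent-of-control values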
Below, each entry is listed alongside its reported IC50.
Supply the numeric figure in nM, leaving out any unit text.

compound="OC1CC2(CCCN(c3nc(OCC45CCCN4CCC5)nc4c(F)c(-c5cccc6cccc(F)c56)ncc34)C2)C1 (stereo not shown)" experimental_readout=IC50 unit_string=nM result_value=3360
compound=O=C(O)[C@H]1C[C@H](Nc2nc(OCC34CCCN3CCC4)nc3c(F)c(-c4cccc5cccc(F)c45)ncc23)C1 experimental_readout=IC50 unit_string=nM result_value=31400
compound=Fc1c(-c2cccc3cccc(F)c23)ncc2c(NCCCc3cccnc3)nc(OCC34CCCN3CCC4)nc12 experimental_readout=IC50 unit_string=nM result_value=7140
compound=N#Cc1cccnc1N1CCN(c2nc(OCC34CCCN3CCC4)nc3c(F)c(-c4cccc5cccc(F)c45)ncc23)CC1 experimental_readout=IC50 unit_string=nM result_value=12700
compound=Fc1c(-c2cccc3cccc(F)c23)ncc2c(N3C[C@@H]4CC[C@@H](C4)C3)nc(OCC34CCCN3CCC4)nc12 experimental_readout=IC50 unit_string=nM result_value=13200

q: Report IC50, nothing else, for this compound: "Fc1c(-c2cccc3cccc(F)c23)ncc2c(NCc3cnn4cccnc34)nc(OCC34CCCN3CCC4)nc12"
a: 81100

q: Report IC50, nothing else, for this compound: "O[C@@H]1C[C@H](O)CN(c2nc(OCC34CCCN3CCC4)nc3c(F)c(-c4cccc5cccc(F)c45)ncc23)C1"
a: 3270

q: Report IC50, nothing else, for this compound: "O=S1(=O)CC(Nc2nc(OCC34CCCN3CCC4)nc3c(F)c(-c4cccc5cccc(F)c45)ncc23)C1"
a: 10300

###

Biological target: KRas G12D (Homo sapiens, UniProt P01116, G12D);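 note: TR-FRET displacement binding assay on KRas, read after a one-hour incubation at room temperature, IC50 fitted from percent-of-control values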
Sequence (P01116 1-169 isoform P01116-2 G12D): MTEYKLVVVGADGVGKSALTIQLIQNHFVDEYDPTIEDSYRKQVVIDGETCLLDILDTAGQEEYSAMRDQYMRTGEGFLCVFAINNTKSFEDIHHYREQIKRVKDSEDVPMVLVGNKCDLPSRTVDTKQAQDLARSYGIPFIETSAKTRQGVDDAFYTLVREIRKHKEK
Experiment: biochemical
experimental.readout: IC50

q: Report IC50, nothing else, for this compound: "CCc1c(F)ccc2cc(O)cc(-c3ncc4c(N5CCCn6nc(NC)cc6C5)nc(OC[C@@]56CCCN5C[C@H](F)C6)nc4c3F)c12"
a: ≤ 2 nM

q: Report IC50, nothing else, for this compound: "Nc1n[nH]c(CCNc2nc(OCC34CCCN3CCC4)nc3c(F)c(-c4cccc5cccc(F)c45)ncc23)n1"
a: ≥ 100000 nM

q: Report IC50, nothing else, for this compound: "CCc1c(F)ccc2cc(O)cc(-c3ncc4c(N5CCCn6nc(C(=O)N7CCN(C)CC7)cc6C5)nc(OC[C@@]56CCCN5C[C@H](F)C6)nc4c3F)c12"
a: ≤ 2 nM

q: Report IC50, nothing else, for this compound: "CCc1c(F)ccc2cc(O)cc(-c3ncc4c(N5CCCCCC5)nc(OC[C@@]56CCCN5C[C@H](F)C6)nc4c3F)c12"
a: ≤ 2 nM

###

Tested on: pERK in H460 cells
Test: Inhibition of KRas phosphorylation of ERK (Cisbio HTRF pERK assay)
Conditions: Homo sapiens, NCI-H460, read-out: Inhibition (HTRF IC50) of KRas-mediated Phosphorylation of ERK, H460
Criterion: IC50 strictly under 200 nM. Met: Met. Not met: Not met.

compound="C#Cc1c(F)ccc2cc(O)cc(-c3ncc4c(N5CCCC6(CC(O)C6)C5)nc(OC[C@@]56CCCN5C[C@H](F)C6)nc4c3F)c12 (stereo partly shown) [Example 393]" classification=Met
compound="CCc1c(F)ccc2cc(O)cc(-c3ncc4c(NCc5cccnc5N)nc(OC[C@@]56CCCN5C[C@H](F)C6)nc4c3F)c12 [Example 136]" classification=Met
compound="CCc1c(F)ccc2cc(O)cc(-c3ncc4c(N5CCCn6nc(N)cc6C5)nc(OC[C@@]56CCCN5C[C@H](F)C6)nc4c3F)c12 [Example 61]" classification="Not met"
compound="CCc1c(F)ccc2cc(O)cc(-c3ncc4c(N5CCOCC(C)(O)C5)nc(OC[C@@]56CCCN5C[C@H](F)C6)nc4c3F)c12 (stereo partly shown) [Example 63]" classification=Met
compound="CCc1c(F)ccc2cc(O)cc(-c3ncc4c(N5CCCC6(CCC(O)C6)C5)nc(OC[C@@]56CCCN5C[C@H](F)C6)nc4c3F)c12 (stereo partly shown) [Example 510]" classification="Not met"

q: Please let me know if CN(C)C(=O)c1cc2n(n1)CCCN(c1nc(OC[C@@]34CCCN3C[C@H](F)C4)nc3c(F)c(-c4cc(O)cc5ccc(F)c(Br)c45)ncc13)C2 [Example 412] shows IC50 below 200 nM.
a: Not met

q: Please let me know if CCc1c(F)ccc2cc(O)cc(-c3ncc4c(N5CCCn6nc(C(=O)NCCO)cc6C5)nc(OC[C@@]56CCCN5C[C@H](F)C6)nc4c3F)c12 [Example 506] shows IC50 below 200 nM.
a: Not met

Source listed as patent US12398154B2.
